test system: Staphylococcus intermedius 31; experiment: IO staining of colonies of beta-D-galactosidase positive/negative bacteria (Table IVb); format: cell-based; conditions: Staphylococcus intermedius strain 31, b-gal +; 24 h on Nutrient Agar, 150 mg/l indicator, 100 mg/l IPTG
metric-name: C: Color of colonies

# example entries with known answers
Cn1cccc1C(=O)c1ccccc1-n1cc(O[C@@H]2O[C@H](CO)[C@H](O)[C@H](O)[C@H]2O)c2ccc(Cl)cc21 [Indicator I31a] ... +
O=C(c1ccccc1)c1ccccc1-n1cc(O[C@@H]2O[C@H](CO)[C@H](O)[C@H](O)[C@H]2O)c2c(Cl)c(Br)ccc21 [Indicator I22a] ... −
COc1ccc(C(=O)c2ccccc2-n2cc(O[C@@H]3O[C@H](CO)[C@H](O)[C@H](O)[C@H]3O)c3c(Cl)c(Br)ccc32)c(OC)c1 [Indicator I28a] ... +
COc1ccc(C(=O)c2ccccc2-n2cc(O[C@@H]3O[C@H](CO)[C@H](O)[C@H](O)[C@H]3O)c3ccc(Cl)cc32)c(OC)c1 [Indicator I27a] ... −
O=C(c1ccccc1)c1ccccc1-n1cc(O[C@@H]2O[C@H](CO)[C@H](O)[C@H](O)[C@H]2O)c2ccc(Cl)cc21 [Indicator I21a] ... +/−

# get_value(readout='C: Color of colonies', item= CC(=O)c1ccccc1-n1cc(O[C@@H]2O[C@H](CO)[C@H](O)[C@H](O)[C@H]2O)c2ccc(Cl)cc21 [Indicator I16a] ) +/−

Subsequent entry: COc1ccc(C(=O)c2ccccc2-n2cc(O[C@@H]3O[C@H](CO)[C@H](O)[C@H](O)[C@H]3O)c3ccccc32)c(OC)c1 [Indicator I25a] +/−

###

test system: Escherichia coli 61; experiment: IO staining of colonies of beta-D-galactosidase positive/negative bacteria (Table IVb); type: cell-based; conditions: Escherichia coli strain 61, b-gal +; 24 h on Nutrient Agar, 150 mg/l indicator, 100 mg/l IPTG; further: key: −: absent; +/−: weak; +: strong; ++: very strong
metric-name: C: Color of colonies

CC(=O)c1ccccc1-n1cc(O[C@@H]2O[C@H](CO)[C@H](O)[C@H](O)[C@H]2O)c2ccc(Cl)cc21 [Indicator I16a] ... +
COc1ccc(C(=O)c2ccccc2-n2cc(O[C@@H]3O[C@H](CO)[C@H](O)[C@H](O)[C@H]3O)c3c(Cl)c(Br)ccc32)c(OC)c1 [Indicator I28a] ... +
COc1ccc(C(=O)c2ccccc2-n2cc(O[C@@H]3O[C@H](CO)[C@H](O)[C@H](O)[C@H]3O)c3ccc(Cl)cc32)c(OC)c1 [Indicator I27a] ... ++

###

test system: Klebsiella pneumoniae 164; test: IO staining of colonies of beta-D-galactosidase positive/negative bacteria (Table IVb); assay type: cell-based; conditions: Klebsiella pneumoniae strain 164, b-gal +; 24 h on Nutrient Agar, 150 mg/l indicator, 100 mg/l IPTG
metric-name: F: Fluorescence of colonies

Some entries whose results are on file:
Cn1cccc1C(=O)c1ccccc1-n1cc(O[C@@H]2O[C@H](CO)[C@H](O)[C@H](O)[C@H]2O)c2ccc(Cl)cc21 [Indicator I31a] ... +/−
COc1ccc(C(=O)c2ccccc2-n2cc(O[C@@H]3O[C@H](CO)[C@H](O)[C@H](O)[C@H]3O)c3c(Cl)c(Br)ccc32)c(OC)c1 [Indicator I28a] ... +/−
CC(=O)c1ccccc1-n1cc(O[C@@H]2O[C@H](CO)[C@H](O)[C@H](O)[C@H]2O)c2ccc(Cl)cc21 [Indicator I16a] ... +
COc1ccc(C(=O)c2ccccc2-n2cc(O[C@@H]3O[C@H](CO)[C@H](O)[C@H](O)[C@H]3O)c3ccccc32)c(OC)c1 [Indicator I25a] ... +
O=C(c1ccccc1)c1ccccc1-n1cc(O[C@@H]2O[C@H](CO)[C@H](O)[C@H](O)[C@H]2O)c2c(Cl)c(Br)ccc21 [Indicator I22a] ... +/−

// F: Fluorescence of colonies lookup, key: COc1ccc(C(=O)c2ccccc2-n2cc(O[C@@H]3O[C@H](CO)[C@H](O)[C@H](O)[C@H]3O)c3ccc(Cl)cc32)c(OC)c1 [Indicator I27a] +

Again, but for O=C(c1ccccc1)c1ccccc1-n1cc(O[C@@H]2O[C@H](CO)[C@H](O)[C@H](O)[C@H]2O)c2ccc(Cl)cc21 [Indicator I21a] +
